Would you kindly list TBIL for each of these compounds?
- Species on record: Rattus norvegicus
- TEST_SUMMARY: Open TG-GATES - Regimen: Daily Repeat
- Assay type: toxicity, organism-based, Sprague-Dawley
- Set-up: regimen Daily Repeat, gender Male, age 6 weeks
- RUN_CONDITIONS: in vivo, po, 0 mg/kg, […], tissue Plasma, route gavage, dose level Control, time 7 day
Give bare numbers, in mg/dL.

Reference set, count: 3
>>> observed_result("O=c1ccc2ccccc2o1")
0.3
>>> observed_result("NS(=O)(=O)c1cc(C(=O)O)c(NCc2ccco2)cc1Cl [FUROSEMIDE]")
0.05
>>> observed_result("COc1ccc([C@@H]2Sc3ccccc3N(CCN(C)C)C(=O)[C@@H]2OC(C)=O)cc1")
0.018

// input: 3 compounds below; output: TBIL for each
1. CCO
2. O=C(O)c1ccccc1Nc1ccccc1
3. CN(CCOc1ccc(CC2SC(=O)NC2=O)cc1)c1ccccn1.O=C(O)/C=C\C(=O)O (stereo not drawn) [ROSIGLITAZONE MALEATE]

Completion:
1: 0.4; 2: 0.03; 3: 0.028

Each compound below has a recorded value; state its TBIL.
1. CCCCNC(=O)NS(=O)(=O)c1ccc(C)cc1 [TOLBUTAMIDE]
2. CCN(CC)C(=S)SSC(=S)N(CC)CC

Completion:
1. 0.062
2. 0.008
